Details: 333.15 K; 101.33 kPa; Liquid; Concentric cylinders viscometry
viscosity: recorded values
Number in mPa·s, nothing else.

Lab note: C1CCC2=NCCC[NH+]2CC1.O=C([O-])C(F)(F)F [1,8-diazabicyclo[5.4.0]undec-7-enium trifluoroacetate] gave viscosity of 75.72

Reported viscosity for C1CCC2=NCCC[NH+]2CC1.CS(=O)(=O)[O-] [1,8-diazabicyclo[5.4.0]undec-7-enium methanesulfonate] was 131.6

Kindly note the recorded viscosity for C1CCC2=[NH+]CCCN2CC1.CC(=O)[O-] [2,3,4,6,7,8,9,10-octahydropyrimido[1,2-a]azepinium acetate] , which is 20.36

Entry under test: C1CCC2=[NH+]CCCN2CC1.O=S(=O)([O-])C(F)(F)F . Its viscosity was 98.25

----------
Documented mass density across a set of compounds
Conditions: 363.15 K; 101.33 kPa; Liquid; Vibrating tube method
Note: unit kg/m3 is implicit; provide only the numeric part.

>  <compound>
C1CCC2=NCCC[NH+]2CC1.CS(=O)(=O)[O-] [1,8-diazabicyclo[5.4.0]undec-7-enium methanesulfonate]

>  <mass density (kg/m3)>
1180.2

$$$$
>  <compound>
C1CCC2=NCCC[NH+]2CC1.O=C([O-])C(F)(F)F [1,8-diazabicyclo[5.4.0]undec-7-enium trifluoroacetate]

>  <mass density (kg/m3)>
1211.9

$$$$
>  <compound>
C1CCC2=[NH+]CCCN2CC1.CC(=O)[O-] [2,3,4,6,7,8,9,10-octahydropyrimido[1,2-a]azepinium acetate]

>  <mass density (kg/m3)>
1028

$$$$

mass density for C1CCC2=[NH+]CCCN2CC1.O=S(=O)([O-])C(F)(F)F is 1305.9

----------
Details: 293.15 K, Pendant drop shape
Numbers after ± are expanded uncertainties.
experimental.readout: surface tension liquid-gas
Report field: quantity (unit follows the number).

See these solved cases before continuing.
>  <compound>
C1CCC2=NCCC[NH+]2CC1.CS(=O)(=O)[O-] [1,8-diazabicyclo[5.4.0]undec-7-enium methanesulfonate]

>  <experimental.readout>
surface tension liquid-gas

>  <result>
41.84 ± 0.82 mN/m

$$$$
>  <compound>
C1CCC2=NCCC[NH+]2CC1.O=C([O-])C(F)(F)F [1,8-diazabicyclo[5.4.0]undec-7-enium trifluoroacetate]

>  <experimental.readout>
surface tension liquid-gas

>  <result>
32.47 ± 0.75 mN/m

$$$$
>  <compound>
C1CCC2=[NH+]CCCN2CC1.CC(=O)[O-] [2,3,4,6,7,8,9,10-octahydropyrimido[1,2-a]azepinium acetate]

>  <experimental.readout>
surface tension liquid-gas

>  <result>
36.88 ± 0.78 mN/m

$$$$

# context switch: different compound, same surface tension liquid-gas
The compound C1CCC2=[NH+]CCCN2CC1.O=S(=O)([O-])C(F)(F)F showed surface tension liquid-gas equal to 30.39 ± 0.73 mN/m

----------
Each entry below carries its recorded viscosity.
Settings: 313.15 K; 101.33 kPa; Liquid; Concentric cylinders viscometry
Dear colleague, please return just the value in mPa·s, with no unit written.

Worked cases, viscosity given:
>  <compound>
C1CCC2=NCCC[NH+]2CC1.CS(=O)(=O)[O-] [1,8-diazabicyclo[5.4.0]undec-7-enium methanesulfonate]

>  <viscosity, mPa·s>
497.53

$$$$
>  <compound>
C1CCC2=[NH+]CCCN2CC1.CC(=O)[O-] [2,3,4,6,7,8,9,10-octahydropyrimido[1,2-a]azepinium acetate]

>  <viscosity, mPa·s>
48.34

$$$$
>  <compound>
C1CCC2=NCCC[NH+]2CC1.O=C([O-])C(F)(F)F [1,8-diazabicyclo[5.4.0]undec-7-enium trifluoroacetate]

>  <viscosity, mPa·s>
236.97

$$$$

We next turn to a different compound, shown below.
Recorded result, C1CCC2=[NH+]CCCN2CC1.O=S(=O)([O-])C(F)(F)F , viscosity: 276
